- TARGET OF ASSAY: E1-E2-DNA complex (Human papillomavirus 11)
- RUN DESCRIPTION: E2-dependent E1 DNA binding assay (E1-E2 DNA assay)
- PROTOCOL CONDITIONS: E1-E2 DNA assay of Example 11, HPV-11
pIC50: −log10 of the molar value.
Would you mind telling me the reported pIC50 of each entry?

Entry O=C(Nc1ccc2c(c1)CCC2)C1C(c2ccc(Cl)cc2)OC2(C(=O)c3ccccc3C2=O)C1C(=O)O (stereo not drawn) , pIC50 reported as 4.30 to 5.30

Entry O=C(Nc1ccc(F)c(F)c1)C1C(c2ccc(Cl)c(Cl)c2)OC2(C(=O)c3ccccc3C2=O)C1C(=O)O (stereo not drawn) , pIC50 reported as 5.30 to 6.30

Entry N#Cc1cccc(C2OC3(C(=O)c4ccccc4C3=O)C(C(=O)O)C2C(=O)Nc2ccc(N3CCOCC3)cc2)c1 (stereo not drawn) , pIC50 reported as 4.30 to 5.30

Entry CCOc1ccccc1NC(=O)C1C(c2ccc(Cl)c(Cl)c2)OC2(C(=O)c3ccccc3C2=O)C1C(=O)O (stereo not drawn) , pIC50 reported as 4.30 to 5.30

Entry Cc1ccc2c(c1)C(=O)C1(OC(c3ccc(Br)c(Br)c3)C(C(=O)Nc3ccc(-c4csnn4)cc3)C1C(=O)O)C2=O (single isomer, unassigned) [Compound A1011] , pIC50 reported as > 6.30

Entry Cc1ccc2c(c1)C(=O)C13OC(c4ccc(Br)c(Br)c4)C(C(=O)NCCc4ccccc4Cl)C1C(=O)OC23O (single isomer, unassigned) [Compound B1006] , pIC50 reported as 5.30 to 6.30

====

- TARGET OF ASSAY: E1-E2-DNA complex (Human papillomavirus 11, UniProt P04015)
- Sequence (P04015 whole entry, one chain of several): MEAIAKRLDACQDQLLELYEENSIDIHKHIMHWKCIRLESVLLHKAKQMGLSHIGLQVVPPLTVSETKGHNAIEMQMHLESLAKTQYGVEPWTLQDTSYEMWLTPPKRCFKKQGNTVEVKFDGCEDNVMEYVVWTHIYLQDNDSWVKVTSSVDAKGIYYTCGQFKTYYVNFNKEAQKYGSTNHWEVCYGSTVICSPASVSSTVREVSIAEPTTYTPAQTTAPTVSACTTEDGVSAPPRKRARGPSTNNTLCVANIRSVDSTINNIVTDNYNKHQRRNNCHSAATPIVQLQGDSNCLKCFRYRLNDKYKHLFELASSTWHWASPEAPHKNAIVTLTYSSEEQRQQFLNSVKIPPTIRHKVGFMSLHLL
- RUN DESCRIPTION: E2-dependent E1 DNA binding assay (E1-E2 DNA assay)
- PROTOCOL CONDITIONS: E1-E2 DNA assay of Example 11, HPV-11
Would you mind telling me the reported IC50 of each entry?

The value of IC50 recorded for Cc1cc2c(cc1F)C(=O)C1(OC(c3ccc(Br)c(Br)c3)C(C(=O)Nc3ccc(N4CCOCC4)cc3)C1C(=O)O)C2=O (single isomer, unassigned) [Compound A1016] when tested on E1-E2-DNA complex (Human papillomavirus 11, UniProt P04015) reads 0.5 to 5 µM

The value of IC50 recorded for Cc1ccc2c(c1)C(=O)C13OC(c4ccc(Br)c(Br)c4)C(C(=O)NCCc4ccccc4Cl)C1C(=O)OC23O (single isomer, unassigned) [Compound B1004] when tested on E1-E2-DNA complex (Human papillomavirus 11, UniProt P04015) reads 5 to 50 µM

The value of IC50 recorded for Nc1ccc(N2C(=O)C3C(c4ccc(Cl)c(Cl)c4)OC4(C(=O)c5ccccc5C4=O)C3C2=O)cc1 (stereo not drawn) [Compound 2019] when tested on E1-E2-DNA complex (Human papillomavirus 11, UniProt P04015) reads 0.5 to 5 µM

The value of IC50 recorded for O=C1C2C(c3ccc(Cl)cc3)OC3(C(=O)c4ccccc4C3=O)C2C(=O)N1c1cccc(Cl)c1 (stereo not drawn) [Compound 2009] when tested on E1-E2-DNA complex (Human papillomavirus 11, UniProt P04015) reads 5 to 50 µM

The value of IC50 recorded for O=C(Nc1ccc(N2CCOCC2)cc1)C1C(c2ccc(Br)c(Br)c2)OC2(C(=O)c3ccccc3C2=O)C1C(=O)O (stereo not drawn) [10,001] when tested on E1-E2-DNA complex (Human papillomavirus 11, UniProt P04015) reads 0.5 to 5 µM

The value of IC50 recorded for O=C(NCc1ccccc1)C1C(c2ccc(Cl)cc2)OC23C(=O)c4ccccc4C2(O)OC(=O)C13 (racemic) [Compound 3003] when tested on E1-E2-DNA complex (Human papillomavirus 11, UniProt P04015) reads 5 to 50 µM

====

- TARGET OF ASSAY: E1-E2-DNA complex (Human papillomavirus 11)
- RUN DESCRIPTION: E2-dependent E1 DNA binding assay (E1-E2 DNA assay)
- PROTOCOL CONDITIONS: E1-E2 DNA assay of Example 11, HPV-11
pIC50: −log10 of the molar value.
Would you mind telling me the reported pIC50 of each entry?

The value of pIC50 recorded for COc1ccc(NC(=O)C2C(c3ccc(Cl)cc3)OC3(C(=O)c4ccccc4C3=O)C2C(=O)O)cc1OC (stereo not shown) [Compound 1004] when tested on E1-E2-DNA complex (Human papillomavirus 11) reads 4.30 to 5.30

The value of pIC50 recorded for O=C1C2C(c3ccc(Cl)c(Cl)c3)OC3(C(=O)c4ccccc4C3=O)C2C(=O)N1c1ccc2c(c1)OCO2 (racemic) [Compound 2013] when tested on E1-E2-DNA complex (Human papillomavirus 11) reads 5.30 to 6.30

The value of pIC50 recorded for Cc1ccc2c(c1)C(=O)C1(OC(c3ccc(Cl)c(Cl)c3)C(C(=O)Nc3ccc4c(c3)OCO4)C1C(=O)O)C2=O (single isomer, unassigned) [Compound A1003] when tested on E1-E2-DNA complex (Human papillomavirus 11) reads 4.30 to 5.30

The value of pIC50 recorded for O=C(NC1CC1c1ccccc1)C1C(c2ccc(Br)c(Br)c2)OC2(C(=O)c3ccccc3C2=O)C1C(=O)O (single isomer, unassigned) [Compound 1089] when tested on E1-E2-DNA complex (Human papillomavirus 11) reads > 6.30

The value of pIC50 recorded for CC(C)NC(=O)C1C(c2ccc(Cl)c(Cl)c2)OC2(C(=O)c3ccccc3C2=O)C1C(=O)O (stereo not shown) [Compound 1036] when tested on E1-E2-DNA complex (Human papillomavirus 11) reads 5.30 to 6.30

The value of pIC50 recorded for COc1ccccc1NC(=O)C1C(c2ccc(Cl)c(Cl)c2)OC2(C(=O)c3ccccc3C2=O)C1C(=O)O (stereo not shown) [Compound 1124] when tested on E1-E2-DNA complex (Human papillomavirus 11) reads 5.30 to 6.30

The value of pIC50 recorded for O=C(Nc1ccc(-c2csnn2)cc1)C1C(c2ccc(Br)c(Br)c2)OC2(C(=O)c3ccccc3C2=O)C1C(=O)O (racemic) [Compound 1076] when tested on E1-E2-DNA complex (Human papillomavirus 11) reads > 6.30

The value of pIC50 recorded for CC(=O)c1ccc(NC(=O)C2C(c3ccc(F)c(Cl)c3)OC3(C(=O)c4ccccc4C3=O)C2C(=O)O)cc1 (stereo not shown) [Compound 1094] when tested on E1-E2-DNA complex (Human papillomavirus 11) reads 5.30 to 6.30

The value of pIC50 recorded for O=C(NCCc1cccs1)C1C(c2ccc(Cl)c(Cl)c2)OC2(C(=O)c3ccccc3C2=O)C1C(=O)O (stereo not shown) [Compound 1138] when tested on E1-E2-DNA complex (Human papillomavirus 11) reads > 6.30

The value of pIC50 recorded for O=C1C2C(c3ccc(Cl)cc3)OC3(C(=O)c4ccccc4C3=O)C2C(=O)N1c1ccc(F)cc1 (stereo not shown) [Compound 2004] when tested on E1-E2-DNA complex (Human papillomavirus 11) reads 4.30 to 5.30

The value of pIC50 recorded for COc1ccc(OC)c(CCNC(=O)C2C(c3ccc(Cl)c(Cl)c3)OC3(C(=O)c4ccccc4C3=O)C2C(=O)O)c1 (stereo not shown) [Compound 1137] when tested on E1-E2-DNA complex (Human papillomavirus 11) reads 5.30 to 6.30

The value of pIC50 recorded for O=C(Nc1ccc(Oc2ccccc2)cc1)C1C(c2ccc(Cl)c(Cl)c2)OC2(C(=O)c3ccccc3C2=O)C1C(=O)O (stereo not shown) [Compound 1049] when tested on E1-E2-DNA complex (Human papillomavirus 11) reads 5.30 to 6.30

The value of pIC50 recorded for O=C(Nc1ccc(Cl)cc1)C1C(c2ccc(F)c(F)c2)OC2(C(=O)c3ccccc3C2=O)C1C(=O)O (stereo not shown) [Compound 1062] when tested on E1-E2-DNA complex (Human papillomavirus 11) reads 4.30 to 5.30

The value of pIC50 recorded for Cc1ccc2c(c1)C1(O)OC(=O)C3C(C(=O)Nc4ccc(N5CCOCC5)cc4)C(c4ccc(Br)c(Br)c4)OC31C2=O (single isomer, unassigned) [Compound B1003] when tested on E1-E2-DNA complex (Human papillomavirus 11) reads > 6.30

The value of pIC50 recorded for O=C(Nc1ccc2c(c1)OCO2)C1C(c2ccc(Br)c(Br)c2)OC2(C(=O)c3ccccc3C2=O)C1C(=O)O (stereo not shown) [Compound 1084] when tested on E1-E2-DNA complex (Human papillomavirus 11) reads > 6.30

The value of pIC50 recorded for CCc1ccc(NC(=O)C2C(c3ccc(Cl)c(Cl)c3)OC3(C(=O)c4ccccc4C3=O)C2C(=O)O)cc1 (stereo not shown) [Compound 1055] when tested on E1-E2-DNA complex (Human papillomavirus 11) reads 5.30 to 6.30

The value of pIC50 recorded for O=C(Nc1ccc(N2CCOCC2)cc1)C1C(c2ccc(Br)c(Br)c2)OC2(C(=O)c3ccccc3C2=O)C1C(=O)O (single isomer, unassigned) [Compound A1012] when tested on E1-E2-DNA complex (Human papillomavirus 11) reads 4.30 to 5.30

The value of pIC50 recorded for CC(=O)c1ccc(NC(=O)C2C(c3ccc(Cl)c(Cl)c3)OC34C(=O)c5cc(C)sc5C3(O)OC(=O)C24)cc1 (single isomer, unassigned) [Compound D1001] when tested on E1-E2-DNA complex (Human papillomavirus 11) reads > 6.30

The value of pIC50 recorded for N#Cc1cccc(NC(=O)C2C(c3ccc(Cl)c(Cl)c3)OC3(C(=O)c4ccccc4C3=O)C2C(=O)O)c1 (stereo not shown) [Compound 1127] when tested on E1-E2-DNA complex (Human papillomavirus 11) reads 5.30 to 6.30

The value of pIC50 recorded for O=C1C2C(c3ccc(Cl)cc3)OC3(C(=O)c4ccccc4C3=O)C2C(=O)N1c1ccc(C(F)(F)F)cc1 (stereo not shown) [Compound 2015] when tested on E1-E2-DNA complex (Human papillomavirus 11) reads 4.30 to 5.30

The value of pIC50 recorded for Cc1ccc2c(c1)C(=O)C1(OC(c3ccc(Br)c(Br)c3)C(C(=O)Nc3ccc(N4CCOCC4)cc3)C1C(=O)O)C2=O (single isomer, unassigned) [Compound A1014] when tested on E1-E2-DNA complex (Human papillomavirus 11) reads > 6.30

The value of pIC50 recorded for CC(=O)c1ccc(NC(=O)C2C(C(Br)=Cc3ccccc3)OC3(C(=O)c4ccccc4C3=O)C2C(=O)O)cc1 (racemic) [Compound 4012] when tested on E1-E2-DNA complex (Human papillomavirus 11) reads 4.30 to 5.30

The value of pIC50 recorded for CC(=O)c1ccc(NC(=O)C2C(c3cccc(Cl)c3)OC3(C(=O)c4ccccc4C3=O)C2C(=O)O)cc1 (stereo not shown) [Compound 1032] when tested on E1-E2-DNA complex (Human papillomavirus 11) reads 5.30 to 6.30

The value of pIC50 recorded for Cc1ccc2c(c1)C(=O)C1(OC(c3ccc(Cl)c(Cl)c3)C(C(=O)Nc3ccc4c(c3)OCO4)C1C(=O)O)C2=O (single isomer, unassigned) [Compound A1004] when tested on E1-E2-DNA complex (Human papillomavirus 11) reads 4.30 to 5.30

The value of pIC50 recorded for CC(=O)c1ccc(NC(=O)C2C(C=C(C)c3ccccc3)OC3(C(=O)c4ccccc4C3=O)C2C(=O)O)cc1 (racemic) [Compound 4008] when tested on E1-E2-DNA complex (Human papillomavirus 11) reads 4.30 to 5.30
